Listing of recorded fraction unbound at 4 h, 2.5 µM by entry.
Test: Protein binding in mouse plasma at 2.5 uM measured after 4 hrs by equilibrium dialysis based LC-MS/MS analysis
Format: ADME, cell-free
Conditions: read-out: PPB (converted)
Numbered stars: 1 amine (or outer) side, 2 acyl side, 3 side chain; on linkers, the order of the positions; unused ones are H or OH. Bridge positions count the residues as written; N and C are the ends. Square brackets hold non-standard residues; d marks the D form. Peptide text beside a SMILES is read from it. Trp(5-F) = N[C@@H](Cc1c[nH]c2ccc(F)cc12)C(=O)O; Lys(Me3) = C[N+](C)(C)CCCC[C@H](N)C(=O)O; X1 = O=C(CCSCc1cccc(CSCCN[*:1])c1)[*:2]; mXylylene = c1cc(C[*:1])cc(C[*:2])c1; αMeP = C[C@@]1(C(=O)O)CCCN1; Mpa = O=C(O)CCS
API doc: respond with a numeric literal and nothing else, no unit.

// below: answered compounds
COc1ccc(C[C@@H]2NC(=O)[C@H](Cc3cnc[nH]3)NC(=O)[C@H](CC(=O)O)NC(=O)[C@H](Cc3c[nH]c4ccc(F)cc34)NC(=O)[C@H](Cc3c[nH]c4ccc(F)cc34)NC(=O)[C@@H](C)NC(=O)[C@H](CCCC[N+](C)(C)C)NC(=O)CCSCc3cccc(c3)CSCCNC(=O)[C@]3(C)CCCN3C2=O)cc1 (cyclo(DHY(Me)[αMeP][X1][Lys(Me3)][dA][Trp(5-F)][Trp(5-F)])); 0.007
COc1ccc(C[C@@H]2NC(=O)[C@H]([C@@H](C)O)NC(=O)[C@@H]3CCC(=O)NCc4cccc(c4)C[C@H](NC(=O)[C@@H](C)NC(=O)[C@H](C)NC(=O)CCSCc4cccc(c4)CSCCNC(=O)[C@]4(C)CCCN4C2=O)C(=O)N[C@@H](Cc2c[nH]c4ccc(F)cc24)C(=O)N3)cc1; 0.015
C[C@H]1NC(=O)[C@H](CCCCN)NC(=O)CCSCc2cccc(c2)CSCCNC(=O)[C@]2(C)CCCN2C(=O)[C@H](Cc2ccc(O)cc2)NC(=O)[C@H](Cc2cnc[nH]2)NC(=O)[C@H](CC(=O)O)NC(=O)[C@H](Cc2c[nH]c3ccc(F)cc23)NC(=O)[C@H](Cc2c[nH]c3ccc(F)cc23)NC1=O; 0.0077
C[C@@]12CCCN1C(=O)[C@H](Cc1ccc(O)cc1)NC(=O)[C@H](Cc1cnc[nH]1)NC(=O)[C@H](CC(=O)O)NC(=O)[C@H](Cc1c[nH]c3ccc(F)cc13)NC(=O)[C@H](Cc1c[nH]c3ccc(F)cc13)NC(=O)CNC(=O)[C@H](CCCCN)NC(=O)CCSCc1cccc(c1)CSC[C@@H](C(N)=O)NC2=O ([Mpa]KG[Trp(5-F)][Trp(5-F)]DHY[αMeP]C-NH2; linker 1-10 via mXylylene); 0.0515
C[C@H]1NC(=O)[C@H](CCCCN)NC(=O)CCSCc2cccc(c2)CSC[C@@H](C(N)=O)NC(=O)[C@]2(C)CCCN2C(=O)[C@H](Cc2ccc(O)cc2)NC(=O)[C@H]([C@@H](C)O)NC(=O)[C@@H]2C[C@H](F)CN2C(=O)[C@H](Cc2c[nH]c3ccc(F)cc23)NC(=O)[C@H](Cc2c[nH]c3ccc(F)cc23)NC1=O; 0.0167

Exam item: fraction unbound at 4 h, 2.5 µM lookup needed for CC(C)[C@H]1NC(=O)[C@H](CCCCN)NC(=O)CCSCc2cccc(c2)CSCCNC(=O)[C@]2(C)CCCN2C(=O)[C@H](Cc2ccc(O)cc2)NC(=O)[C@H](Cc2cnc[nH]2)NC(=O)[C@H](CC(=O)O)NC(=O)[C@H](Cc2c[nH]c3ccc(F)cc23)NC(=O)[C@H](Cc2c[nH]c3ccc(F)cc23)NC1=O , thanks.
Marked response: 0.001

Exam item: fraction unbound at 4 h, 2.5 µM lookup needed for NCCCC[C@@H]1NC(=O)CCSCc2cccc(c2)CSC[C@@H](C(N)=O)NC(=O)[C@@H]2CCCN2C(=O)[C@H](Cc2ccc(O)cc2)NC(=O)[C@H](Cc2c[nH]cn2)NC(=O)[C@H](CC(=O)O)NC(=O)[C@H](Cc2c[nH]c3ccc(F)cc23)NC(=O)[C@H](Cc2c[nH]c3ccc(F)cc23)NC(=O)CNC1=O , thanks.
Marked response: 0.0498

Values compiled from ChEMBL document CHEMBL4699634.
